Catalogue of z-score values
# assay name: basal RPMI8226 mitochondrial membrane potential changes, profiling panel, cell-based, JC-1 fluorescence, 24 h, 100 nL compound (AID 1169)
# test conditions: RPMI8226 myeloma, JC-1 mitochondrial potential fluorescence, higher = more signal
Just the number, please, no unit after it.

O=C1C2=CC[C@H]3C(=O)N(c4ccc(F)cc4F)C(=O)[C@H]3[C@H]2[C@H](O)[C@@H]2O[C@H]12 | 0.0423
CCN1C(=O)[C@H]2[C@H]3[C@H](O)[C@H](O)CC(=NO[C@@H]4O[C@H](COC(C)=O)[C@@H](OC(C)=O)[C@H](OC(C)=O)[C@H]4OC(C)=O)[C@@H]3CC[C@H]2C1=O | 0.69
COc1ccc(O[C@H]2C=C[C@@H](c3ccccc3)O[C@@H]2COC(=O)CCC(C)=NOC[C@@H](O)COCc2ccco2)cc1 | -0.313

Returns the measured z-score for the input compound. Input: `COc1ccc(COC(=O)NN=C2C[C@@H](O)[C@@H](O)[C@@H]3[C@@H]4C(=O)N(Cc5ccccc5)C(=O)[C@@H]4CC[C@@H]23)cc1`
0.76

Item: `COc1ccc(O[C@H]2C=C[C@@H](c3ccccc3)O[C@@H]2CO)cc1`
0.362

Item: C=CCOCC1CN2[C@@H](CC[C@@H](C)[C@@H]2c2ccc(Br)cc2)C(=O)O1 (some centres not stated)
-0.207

Item: COC(=O)[C@H](C)NC(=O)CCC1CC(OC(=O)NCc2ccc3c(c2)OCO3)CC2(CCCC(COC(=O)NCCC(C)C)O2)O1 (some centres not stated)
-0.253

====

# System: XIP peptide (Xip251-270) binding
# assay name: small-molecule binders of XIP peptide, primary screen, biochemical, small-molecule microarray, fluorescence 635/667 nm, 0.1 µg/mL protein (AID 1182)
# test conditions: fluorescent protein binding, 635 nm, higher = more signal, called active from +8 up or from −8 down
The source made the active and inactive calls.
recorded metric: composite z-score

A selection of reference data follows.
C#CCCCON=C1C[C@@H](O)[C@@H](O)[C@@H]2[C@@H]3C(=O)N(C[C@@H]4CCCO4)C(=O)[C@@H]3CC[C@@H]12 | 0.141 (inactive)
COc1ccc(COC(=O)NN=C2C[C@@H](O)[C@@H](O)[C@@H]3[C@@H]4C(=O)N(C(C)(C)C)C(=O)[C@@H]4CC[C@@H]23)cc1 | 0.457 (inactive)
CCOC(=O)CCN1C(=O)[C@H]2[C@H]3[C@H](O)[C@H](O)CC(=NO[C@@H]4O[C@H](CO)[C@@H](O)[C@H](O)[C@H]4O)[C@@H]3CC[C@H]2C1=O | 0.557 (inactive)
CCC1=NOC(CCC2CC(OC(=O)NCc3cccc4c3OCO4)CC3(CCCC(COC(=O)NCCc4ccc(Cl)cc4)O3)O2)C1 (configuration not stated) | 0.214 (inactive)

Returns the measured composite z-score for the input compound. Input: `C[C@@H]1C=CCC(=O)OC[C@H](C)C(=O)N[C@@H](Cc2ccccc2)C(=O)OC1`
-0.478 (inactive)

Item: `CC(C)(C)N1C(=O)[C@H]2[C@H]3[C@H](O)[C@H](O)CC(=NNC(=O)OCc4ccccc4)[C@H]3CC[C@H]2C1=O`
-0.401 (inactive)

Item: `CC(CCN1CCCc2nc(C)c(C)cc21)=NO[C@H](C)c1cn([C@H](CO)Cc2ccccc2)nn1`
-0.0325 (inactive)
